The entries below are paired with their reported Ki.
Biological target: α4β2 nAChR Subtype (Rattus norvegicus, UniProt P09483+P12390)
Construct: The cerebral cortex was removed and placed in 20 volumes (weight:volume) of ice-cold preparative buffer; from tissue; host or cells: rat cerebral cortex membranes
Sequence (P09483 31-630): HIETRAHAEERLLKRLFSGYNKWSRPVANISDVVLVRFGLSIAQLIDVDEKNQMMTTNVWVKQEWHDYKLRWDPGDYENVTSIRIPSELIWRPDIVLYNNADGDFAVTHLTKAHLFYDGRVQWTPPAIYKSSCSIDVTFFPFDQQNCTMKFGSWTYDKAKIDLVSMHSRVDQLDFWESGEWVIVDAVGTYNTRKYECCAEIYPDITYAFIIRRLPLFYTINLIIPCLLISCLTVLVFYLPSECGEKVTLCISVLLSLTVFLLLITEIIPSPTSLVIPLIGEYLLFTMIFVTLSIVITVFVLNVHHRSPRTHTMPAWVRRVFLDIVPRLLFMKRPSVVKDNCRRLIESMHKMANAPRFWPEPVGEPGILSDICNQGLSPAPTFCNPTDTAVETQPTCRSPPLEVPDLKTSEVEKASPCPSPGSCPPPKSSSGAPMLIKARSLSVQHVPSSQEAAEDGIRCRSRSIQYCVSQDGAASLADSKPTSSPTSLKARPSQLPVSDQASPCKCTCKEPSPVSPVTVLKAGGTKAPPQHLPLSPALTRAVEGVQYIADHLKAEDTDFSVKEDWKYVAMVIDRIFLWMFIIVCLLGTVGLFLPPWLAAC
Sequence (P12390 25-500): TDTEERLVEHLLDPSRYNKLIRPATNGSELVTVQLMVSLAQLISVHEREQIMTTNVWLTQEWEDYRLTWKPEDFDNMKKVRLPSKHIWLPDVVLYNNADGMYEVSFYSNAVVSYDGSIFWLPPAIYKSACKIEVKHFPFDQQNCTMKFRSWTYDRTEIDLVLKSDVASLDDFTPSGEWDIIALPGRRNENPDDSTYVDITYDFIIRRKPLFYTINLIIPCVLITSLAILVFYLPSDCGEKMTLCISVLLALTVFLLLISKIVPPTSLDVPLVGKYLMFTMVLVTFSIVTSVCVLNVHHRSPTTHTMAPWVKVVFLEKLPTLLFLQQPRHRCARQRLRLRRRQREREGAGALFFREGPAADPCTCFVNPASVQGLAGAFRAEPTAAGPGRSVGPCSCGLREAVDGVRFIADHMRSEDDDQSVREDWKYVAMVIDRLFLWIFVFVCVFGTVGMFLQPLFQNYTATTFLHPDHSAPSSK
Experiment: Radioligand binding ([3H]nicotine) at rat α4β2 nAChR subtype, rat cerebral cortex membranes
Conditions: [3H]nicotine 5 nM, rat cortex; read-out: Rat α4β2 Ki
State the answer as a number, implicitly in nM.

The examples below pair each entry with its known result.
Cc1cc(C(=O)N2C[C@@H]3CN[C@@H](C3)C2)no1: 853
Cc1ncoc1C(=O)N1CC2CCNCC2C1 (stereo not shown): 952
O=C(c1ccco1)N1CCC2CNCC21 (stereo not shown): 599

Could you tell me which Ki is on file for CC(C)c1cc(C(=O)N2C[C@@H]3CN[C@@H](C3)C2)on1 ?
470

Now try O=C(c1ccncc1)N1CC2CNCC1C2 (stereo not shown) .
317

Now try COc1cc(C(=O)N2CC3CNCC2C3)on1 (stereo not shown) .
195
